Cited source for all entries: paper PMC4981850

biological target: hDAT (human dopamine transporter) (Homo sapiens); construct: gene SLC6A3; experiment: two-electrode voltage clamp (-60 mV), Xenopus oocytes expressing hDAT, block of transporter leak current; type: cell-based
METRIC: EC50 (µM)

- COMPOUND: "C[C@H]1[C@H](c2ccccc2)OCCN1C [2S,3S(+)-PDM]"
  METRIC: "EC50"
  DATA_VALUE: 2.56

* * *

target: hDAT (human dopamine transporter) (Homo sapiens, UniProt Q01959); construct: gene SLC6A3; experiment: two-electrode voltage clamp (-60 mV), Xenopus oocytes expressing hDAT, inward current; format: cell-based
Sequence (Q01959 whole entry): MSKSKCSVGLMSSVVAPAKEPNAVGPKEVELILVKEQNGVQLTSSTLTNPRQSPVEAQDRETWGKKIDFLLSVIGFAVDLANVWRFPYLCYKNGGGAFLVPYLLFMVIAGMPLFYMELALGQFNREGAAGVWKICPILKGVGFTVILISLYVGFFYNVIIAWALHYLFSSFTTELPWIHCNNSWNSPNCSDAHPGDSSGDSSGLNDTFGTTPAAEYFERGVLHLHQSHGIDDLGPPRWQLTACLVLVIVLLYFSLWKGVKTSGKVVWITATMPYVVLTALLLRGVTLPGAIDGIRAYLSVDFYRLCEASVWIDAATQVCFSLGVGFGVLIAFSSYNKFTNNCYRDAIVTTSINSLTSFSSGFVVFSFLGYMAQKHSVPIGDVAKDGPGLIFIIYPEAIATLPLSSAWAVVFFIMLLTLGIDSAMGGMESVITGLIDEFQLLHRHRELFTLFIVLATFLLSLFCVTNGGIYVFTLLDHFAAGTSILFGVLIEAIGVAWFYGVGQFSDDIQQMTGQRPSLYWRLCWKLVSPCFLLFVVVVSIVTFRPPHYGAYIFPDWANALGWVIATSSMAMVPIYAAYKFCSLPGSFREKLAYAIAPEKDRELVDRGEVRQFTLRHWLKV
pEC50: −log10 of the molar value.

- COMPOUND: "C[C@H]1NCCO[C@@H]1c1ccccc1 [2R,3R(−)-PM, (2R,3R)-(+)-3-Methyl-2-phenylmorpholine]"
  pEC50: 5.58
- COMPOUND: "C[C@@H]1NCCO[C@H]1c1ccccc1 [2S,3S(+)-PM, (2S,3S)-(+)-3-Methyl-2-phenylmorpholine]"
  pEC50: 6.12
